Reported MIC by item:
test system: M. tuberculosis strain H37Rv; experiment: microbe, parasite or virus in culture; type: cell-based, Mycobacterium tuberculosis; settings: Mycobacterium tuberculosis, H37RV
Express your answer in µM, writing the number without its unit.

Consider the reported MIC for these molecules:
Which MIC is reported for this molecule? Cc1cc(C)c2cc(C(=O)Nc3ccc(C)c(F)c3)[nH]c2c1
1.7

Which MIC is reported for this molecule? Cc1cc(C)c2cc(C(=O)Nc3ccncc3)[nH]c2c1
240

Which MIC is reported for this molecule? Cc1cc(C)c2cc(C(=O)NC3CC3)[nH]c2c1
561

Which MIC is reported for this molecule? Cc1cc(C)c2cc(C(=O)Nc3ccccc3)[nH]c2c1
3.8

***
Which MIC is reported for this molecule? Cc1cc(C)c2cc(C(=O)NC3CCCCCCC3)[nH]c2c1
0.013
